assayed system: FKBP12 (Homo sapiens, UniProt P62942)
Sequence (P62942 whole entry): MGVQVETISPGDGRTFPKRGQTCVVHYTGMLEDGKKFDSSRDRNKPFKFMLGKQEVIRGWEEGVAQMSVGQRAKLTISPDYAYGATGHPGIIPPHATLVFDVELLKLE
test name: Competitive ligand binding assay (FKBP/FRB NanoBiT luminescence protein complementation) in HEK293 cells
protocol conditions: 30 nM rapamycin, AHK2 1 μM–10 mM, read-out: IC50, displacement of rapamycin from FKBP12 (inhibition of FKBP12-Rapamycin-FRB interaction)
reported metric: IC50 (µM)
One number for each entry, in µM.

input: Fetch value of IC50 on FKBP12 (Homo sapiens, UniProt P62942) for COc1ccc(SCc2cn(CCN(C)C)nn2)cc1 [AHK2] .
output: 2980
